Experiment: NCI Yeast Anticancer Drug Screen. Data for the sgs1 mgt1 strain (AID 161);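 note: 0% = growth of cultures given vehicle only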
Conditions: S. cerevisiae sgs1 mgt1 strain, at 50.0 µM (retest, dose inferred, filed as 5.0)
Compounds without any hit were thinned out: in the full panel of roughly 79,000, 15% have a hit. The source made the active and inactive calls. Cut-off read from the data, not from the text of the source: active = growth inhibition above about 70%; inactive = the rest.
Labels: active, inactive

Molecule	Category Label
c1ccc2c(c1)CCN2CCc1c[nH]c2ccccc12	inactive
CCCCCCCOC(=O)c1cc2cc(C(CC)C(CC)c3ccc(O)cc3)ccc2oc1=O (stereo not drawn)	inactive
OC1(c2ccccc2)CCC2CCCCC2C1 (stereo not drawn)	inactive
O=NN(CCCl)C(=O)Nc1cc(Cl)ccc1O	inactive
C[Si](C)(C)C1=C([Si](C)(C)C)C(Cl)(Cl)C1=O	inactive
CC(C)(C)NC(=S)N/N=C/c1cc(Cl)cc(Cl)c1O	active
C(/C=C/CC=Nc1ccccc1)=Nc1ccccc1	inactive
Nc1ccc(S(=O)(=O)C23CC4CC(CC(C4)C2)C3)cc1	active
CC(Br)C(=O)c1ccc(OCc2ccccc2)cc1 (stereo not drawn)	active
O=C1O/C(=C\c2ccccc2)c2ccccc21	inactive
CC(=O)OC1COC(N2C(=O)C(=O)c3cc(Br)ccc32)C(OC(C)=O)C1OC(C)=O (stereo not drawn)	inactive
O=C(N=Nc1cccc(Cl)c1)NNc1cccc(Cl)c1	active
COC(=O)c1c(/C(=N/Nc2ccc([N+](=O)[O-])cc2)[N+](=O)[O-])ssc1=N	inactive
CC1=CC(=N/O)/C=CC/1=C(\C#N)c1ccccc1	active
CNC(=O)NN(C)C=O	inactive
Cc1c(N)nc(C2CC(=O)N2CC(N)C(N)=O)nc1C(=O)NC(C(=O)NC(C)C(O)C(C)C(=O)NC(C(=O)NCCc1nc(-c2nc(C(=O)NCCCNC3CCCC3)cs2)cs1)C(C)O)C(OC1OC(CO)C(O)C(O)C1OC1OC(CO)C(O)C(OC(N)=O)C1O)c1cnc[nH]1 (stereo not drawn)	active
CCOC(=O)C1=C(C)NC(C)=C(C(=O)OCC)C1c1c(-c2ccccc2)noc1C	inactive
O=C(NO)C(=O)Nc1cc(Cl)ccc1Cl	active
COc1ccc2c(c1)CC1c3c(ccc(OC)c3O)CC2N1C (stereo not drawn)	inactive
Cc1cc(C)c(CCCC(=O)c2c(C)cc(C)cc2C)c(C)c1	inactive
Oc1ccccc1N=CC1CCCCC1	inactive
Oc1cccc(Oc2cccc(Oc3ccccc3)c2)c1	active
Cc1[nH]nc(C(=O)OC(C)C)c1N=NN(C)C	active

====

Test: NCI Yeast Anticancer Drug Screen. Data for the rad50 strain (AID 155);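 note: 0% = growth of vehicle-only cultures of the same strain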
Conditions: S. cerevisiae rad50 strain growth inhibition; at 5.0 µM (retest, dose inferred, filed as 0.5)
About 79,000 compounds went through this panel and 15% of them were active in at least one assay; those are over-represented in the sample as a whole. Calls of active or inactive are those of the source. Rule as the data show it: active = growth inhibition above about 70%; inactive = the rest.
Labels: label 1 = active, label 0 = inactive

>>> df
                                    compound  category_label
 0     CCCCCCCCCCS(=O)(=O)Nc1ccc(C(=O)NN)cc1         label 0
 1           CN(C)C(=S)NC(=S)Nc1ccc2ccccc2c1         label 0
 2  Cc1ccc(S(=O)(=O)N/N=C2/CC[C@H](C(C)(C)C)C[C@@H]2C)cc1         label 0
 3  CN(C)CCC(=O)[C@@]1(O)CC[C@H]2[C@@H]3CC=C4C[C@@H](O)CC[C@]4(C)[C@H]3CC[C@@]21C         label 0
 4  CCN(CC)CCCC(C)Nc1c2ccccc2nc2c(C)cc(Br)cc12 (stereo unspecified)         label 0
 5    COc1ccc(C(=O)CCc2c[nH]c3ccccc23)c(O)c1         label 0
 6      CN(C)c1cc(N(C)C)c2cc(-c3ccccc3)sc2n1         label 0
 7  C=C1C[C@H](O)[C@H]2C(C[Se]c3ccccc3)C(=O)O[C@@H]2[C@H]2[C@H](C)C(O)C[C@@H]12 (stereo partly specified)         label 0
 8         O=c1c2ccccc2[nH]c2c1[nH]c1ccccc12         label 0
 9  CCN1/C(=C/C=C/C=C\C=C\c2sc3ccc4ccccc4c3[n+]2CC)Sc2ccc3ccccc3c21         label 0
10  CCCCCCN(CCCCCC)CCC(=O)c1ccc2cc(Cl)c3ccccc3c2c1         label 0
11  N#CC1(C#N)C2C=CC(c3coc4cccc2c34)C1(C#N)C#N (stereo unspecified)         label 0
12  CCN(CC)c1ccc(Cl)c2c1C(O)(C(C)C)C2(C)C (stereo unspecified)         label 0
13  CCCCCCC/C=C/C(=O)OC1C(OC2C(OC(CCCCCCC)CC(=O)OC(CCCCCCC)CC(=O)O)OC(C)C(O)C2O)OC(C)C(O)C1O (stereo unspecified)         label 0
14  CC(C)c1c(P(=O)(c2ccccc2)c2ccccc2)n(C)c2ccccc12         label 0
15         CC(=O)Oc1ccc(C(C)(C)CC(C)(C)C)cc1         label 0
16  N#CC(C(=O)CCc1nc2ccccc2[nH]1)c1c(Cl)cccc1Cl (stereo unspecified)         label 0
17     CCCCCCCCCCCCSC1=C(N)C(=O)c2ccccc2C1=O         label 0
18    Cn1c(=S)c2[nH]c(SCCN3CCCC3)nc2n(C)c1=O         label 1
19     O=c1c2ccccc2ncn1Cc1ccccc1[N+](=O)[O-]         label 0
20  OC(c1ccccc1)(C(F)(F)F)C(O)(c1ccccc1)C(F)(F)F (stereo unspecified)         label 1

====

Assay: NCI Yeast Anticancer Drug Screen. Data for the rad50 strain (AID 155);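 note: 0% = growth of vehicle-only cultures of the same strain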
Conditions: S. cerevisiae rad50 strain growth inhibition; at 5.0 µM (retest, dose inferred, filed as 0.5); active compounds read high
The panel holds about 79,000 compounds, 15% with a hit somewhere; the sample as a whole holds those more often. Activity calls are given as the source filed them. Rule as the data show it: active = growth inhibition above about 70%; inactive = the rest.
Overview of reported growth inhibition across a group of compounds:
Measured Endpoint: growth inhibition

>>> print(df.to_string())
                                   compound  observed_measurement
0  O=C(c1ccccc1)C(C(=O)c1ccccc1)c1ccc2ccccc2n1         0% (inactive)
1                   [Cu+2].c1ccc2n[nH]nc2c1          99% (active)
2             O=[N+]([O-])c1c(Cl)ccc2nsnc12        24% (inactive)
3  CC(=O)N(C)C1=C(Sc2ccc(C)cc2)C(=O)c2ccccc2C1=O          95% (active)
4  CCN1CCC(O)(/C=C/c2ccc(Cl)c(Cl)c2)C(C(=O)/C=C/c2ccc(Cl)c(Cl)c2)C1 (stereo unspecified)          99% (active)
5                  Cc1cc(N=Nc2ccncc2C)ccc1N       -69% (inactive)

====

Experiment: NCI Yeast Anticancer Drug Screen. Data for the bub3 strain (AID 167)
Settings: S. cerevisiae bub3 mutant strain, at 50.0 µM, active compounds read high
Description: Growth inhibition of yeast strains with defined genetic alterations is measured as a screen for potential anti-cancer activity. Selected strains with alterations in DNA damage repair or cell cycle control were exposed to compounds and growth inhibition was measured relative to vehicle treated controls. The strain used in this assay is bub3
The panel holds about 79,000 compounds, 15% with a hit somewhere; the sample as a whole holds those more often.
Overview of reported growth inhibition across a group of compounds:
Measured Endpoint: growth inhibition (%)

Compound	Measured Endpoint	Observed Measurement
O=[N+]([O-])/C=C/c1ccco1	growth inhibition	98.9
CN(Cc1cc(Br)cc(Br)c1O)Cc1c[nH]c2ccccc12	growth inhibition	40.9
Cc1cc(Cl)c(C(C)C)cc1O	growth inhibition	24.4
CCCCCCCCCCCC(=O)NN	growth inhibition	95.3
CCOC(=O)C(=O)CC(=O)C(Br)C(Br)c1ccc(Cl)cc1 (stereo not given)	growth inhibition	99.3
CCOC(=O)C(C#N)NC(C)=O (stereo not given)	growth inhibition	69
O=[N+]([O-])c1cnc(F)c(Br)c1	growth inhibition	99.1
COc1ccc(N=Nc2ccc3oc(=O)c(C(=O)Nc4ccc(Cl)cc4)cc3c2)cc1	growth inhibition	98.8
COC(OC)(c1ccccc1)C(Br)Br	growth inhibition	90
CCCC(=O)OCc1cc(=O)n(C)c2c3c4c(cc12)c(C)cc(=O)n4CO3	growth inhibition	-11
N#Cc1ccc2nc3ccc(N)cc3nc2c1	growth inhibition	43.3
Nc1ccc2c(SCC(=O)Nc3ccccc3-c3ccccc3NC(=O)CSc3c4ccccc4nc4cc(N)ccc34)c3ccccc3nc2c1	growth inhibition	90.5
Cc1c(N)nc(C(CC(N)=O)NCC(N)C(N)=O)nc1C(=O)NC(C(=O)NC(C)C(O)C(C)C(=O)NC(C(=O)NCCc1nc(-c2nc(C(=O)NCCCNC(C)c3ccccc3)cs2)cs1)C(C)O)C(OC1OC(CO)C(O)C(O)C1OC1OC(CO)C(O)C(OC(N)=O)C1O)c1cnc[nH]1 (stereo not given)	growth inhibition	93.3
Clc1ccc(CN2COc3c(ccc4ccccc34)C2)cc1	growth inhibition	89.9
C=CC1(C)CCC2C(=CCC3C2(C)CC(O)C(O)C3(C)COC2OC(CO)C(O)C(O)C2O)C1 (stereo not given)	growth inhibition	93.6
CC1=C(C(=O)Nc2cccc(C(F)(F)F)c2)C(c2ccccc2F)C(C(=O)Nc2cccc(C(F)(F)F)c2)=C(C)N1	growth inhibition	85.2
O=C(c1ccccc1)C(C(=O)c1ccccc1)c1ccc2ccccc2n1	growth inhibition	19.1
COc1ccccc1NC(=O)C1=C(C)NC(C)=C(C(=O)Nc2ccccc2OC)C1c1ccc(C2C(C(=O)Nc3ccccc3OC)=C(C)NC(C)=C2C(=O)Nc2ccccc2OC)cc1	growth inhibition	85.2
Nc1nc(-c2cc3cc(Cl)ccc3o2)cs1	growth inhibition	43.7
O=C1OC(C2OC(=O)C(=O)C2C(=O)c2ccc(Cl)c(Cl)c2)C(C(=O)c2ccc(Cl)c(Cl)c2)C1=O (stereo not given)	growth inhibition	55.2

All figures here come from PubChem BioAssay (NCI).
